tested on: RPMI-8226 leukemia; assay: NCI-60 one-dose screen, 48 h; conditions: 10 µM unless noted
About 83,000 compounds went through this panel and 20% of them were active in at least one assay; those are over-represented in the sample as a whole. Calls of active or inactive are those of the source. The calls were made as follows: active = growth percent below 10; inactive = the rest.
Classes used: 1 = active, 0 = inactive

- COMPOUND: "CCCCCCCCCCCCCCCCCCOc1ccccc1CC(=O)NCC[N+]1(C)CCCCC1"
  LABEL VALUE: 0
- COMPOUND: "O=S(=O)(NCCCNc1nccc(-c2c(-c3cccc(F)c3)nc3occn23)n1)c1ccc(F)cc1"
  LABEL VALUE: 0
- COMPOUND: "COc1cccc(/C=C/C(=O)c2cc3c(N)c(C(=O)Nc4cccc5ccccc45)sc3nc2C)c1"
  LABEL VALUE: 1
- COMPOUND: "S=c1nc2oc(-c3ccccc3)c(-c3ccccc3)c2c(/N=C\\c2ccco2)[nH]1"
  LABEL VALUE: 0
- COMPOUND: "Cc1ccc(/C=C/C(=O)c2cccc(OCCCOc3cccc(C(=O)/C=C/c4ccc(C)cc4)c3)c2)cc1"
  LABEL VALUE: 1
- COMPOUND: "N=C(N)c1ccc(-c2ccc(-c3ccccc3)s2)cc1"
  LABEL VALUE: 1
- COMPOUND: "Cc1ccc(-c2nc(N3CCNCC3)c3oc(-c4ccc(C)cc4)nc3n2)cc1"
  LABEL VALUE: 1
- COMPOUND: "Cc1cc2c(cc1C)N(C(=O)CCl)CC(=O)N2"
  LABEL VALUE: 0
- COMPOUND: "N#C/C(=C\\c1ccc([N+](=O)[O-])cc1)n1nnc2cc(F)c(F)cc21"
  LABEL VALUE: 1
- COMPOUND: "CCN1C(=O)N(CC)C2C1N=C(SCc1ccc(Cl)cc1)N2/N=C/C=C/c1ccccc1OC (stereo not given)"
  LABEL VALUE: 0

* * *

tested on: K-562 leukemia; experiment: NCI-60 one-dose screen, 48 h (100 = growth as untreated, 0 = no growth, -100 = all killed); details: 10 µM unless noted
Compounds without any hit were thinned out: in the full panel of roughly 83,000, 20% have a hit.
Would you mind labelling by growth? At or over 80% is criterion met, under is criterion not met.

- MOLECULE: "Cc1ccc(N2C(=O)CCC2=O)cc1"
  EXPERIMENTAL SYSTEM: "K-562 leukemia"
  LABEL VALUE: "criterion met"
- MOLECULE: "CCN(CC)CCN1C(=O)c2cccc3c(/C=C/CN4C(=O)c5cccc6cccc(c56)C4=O)ccc(c23)C1=O"
  EXPERIMENTAL SYSTEM: "K-562 leukemia"
  LABEL VALUE: "criterion not met"
- MOLECULE: "Cc1ccc2c(-n3nc(C#N)c(C#N)c3N)cc(=O)[nH]c2c1"
  EXPERIMENTAL SYSTEM: "K-562 leukemia"
  LABEL VALUE: "criterion not met"
- MOLECULE: "CC1(C)CC2=C3C=C[C@@H]4[C@@]5(C)CCC(=O)C(C)(C)[C@@H]5CC[C@@]4(C)[C@]3(C)CC[C@@]2(C(=O)O)C[C@H]1O"
  EXPERIMENTAL SYSTEM: "K-562 leukemia"
  LABEL VALUE: "criterion not met"
- MOLECULE: "Cc1ccnc(Nc2ccc([N+](=O)[O-])c(NCCN3CCOCC3)n2)c1"
  EXPERIMENTAL SYSTEM: "K-562 leukemia"
  LABEL VALUE: "criterion not met"
